These measurements were taken from ChEMBL document CHEMBL4513216.

Test Details: Toxicity liver stage against HepG2, at 10uM
Format: cell-based
Design: test concentration 10 uM, cell line HepG2-A16-CD81EGFP
Condition Context: human, HepG2-A16-CD81EGFP cells; read-out: INHIBITION

Compound	cytotoxicity at 10 µM
CC(=O)Nc1nc2c(s1)C(C)(C)Nc1ccccc1S2	-7.08%
NC(=O)NC(CC(=O)NCCc1cccc(F)c1)c1ccccc1 (centres undefined)	-0.862%
CC(C)S(=O)(=O)CCN1CCc2c(ncn2C2CC2)C1	-13.9%
CC(=O)N1CCC(Cc2cnc(-c3c(C)nn(C)c3C)cn2)C1 (centres undefined)	-7.31%
O=C(NC1CC1)NC(c1ccc(F)cc1)C1CC1 (centres undefined)	-0.158%
Cc1cc(OC(F)F)c(C(=O)N2CCN(C3CC3)CC2)s1	9.05%
CNc1cc(C2CCCN2C(=O)CCc2cnn(C)c2C)ccn1 (centres undefined)	5.98%
Cc1nc(C)c(CNCC2(COc3cccnc3)C[C@@H](O)[C@@H](O)C2)s1 (some centres undefined)	-1.36%
COc1cc(NCC(c2ccccn2)N(C)C)ncn1 (centres undefined)	-57.4%
Cc1ccc2nc(C)cc(C(=O)NC(C)c3nnn[nH]3)c2c1 (centres undefined)	7.8%
Cc1n[nH]c(C)c1-c1c(C#N)c(N)nc2c1CCc1[nH]ccc1-2	2.83%
CC(=O)N1CCCN(C(=O)NCc2ccc(-c3ccn[nH]3)cc2)CC1	0.322%
Cc1ccsc1CNCCCOc1ccccn1	-0.575%
CN1C(=O)CN(C(=O)c2ccc(=O)n(C)c2)c2ccccc21	-6.67%
COc1ccc(OC)c(C2CCN(Cc3nc(C)n4ccccc34)C2)c1 (centres undefined)	-8.66%
COc1ncnc2c1CCN(C(=O)NCc1cccc(F)c1)CC2	-7.27%
Cn1c(CCC(=O)N2CCC3(CCCO3)CC2)nc2cccnc21	0.592%
O=C(c1ccccc1)N1CCC[C@]2(C[C@@H](OCc3ccccn3)CO2)C1	-67.5%
O=S(=O)(C1CC1)N1CCO[C@@H]2CN(Cc3ccco3)C[C@@H]2C1	-140%
Cc1cccc(OCc2nnc(SCC3CCCN(C)C3)o2)c1 (centres undefined)	-2.8%
O=C(CCc1ccc(Cl)s1)NCc1nnc2n1CCCCC2	-6.1%
O=C(COC[C@H]1CC[C@H]2[C@H](CCN2c2ccccn2)O1)N1CCCC1	0.748%
CCc1nnc(CN2CCCC(Cn3nc(C)nc3C)C2)o1 (centres undefined)	6.81%
CN(CCc1ccccc1)c1cnn(CC(=O)N2CCSCC2)c(=O)c1	-8.74%
Cc1n[nH]c(C2CN(CCCOc3cccc(Cl)c3)CCO2)n1 (centres undefined)	-5.57%
CCN1CCN(C(=O)Cc2ccc(S(=O)(=O)C(F)F)cc2)CC1	-6.43%
COc1ccc(C[C@H]2CN(C(=O)CS(C)(=O)=O)CC[C@H]2OC)cc1	2.64%
Cc1csc(CN2CC[C@H]3C[C@@H](c4nc(C)no4)O[C@@H]3C2)n1	3.8%
CNC(=O)c1nc2c(s1)CCN(C(=O)Cc1ccc(OC)cc1)CC2	4.76%
O=C(c1cccc(-c2ncc[nH]2)c1)N1CCC(N2CCCC(O)C2)CC1 (centres undefined)	6.42%
CCN(CCS(=O)(=O)CC)CC1CCCO1 (centres undefined)	-0.157%
Cc1nc(N2CCCC2)nc2c1CN(C(=O)N(C)C)CC2	4.29%
CN(C)S(=O)(=O)N1CCC(Oc2ccc(C#N)cn2)CC1	4.16%
CNC(=O)[C@@H]1[C@@H](c2ccccc2)CN2CCN(Cc3ccco3)C[C@H]12	-1.94%
CN(C)C(=O)c1nnn(-c2ccc(Br)cc2)n1	7.5%
Cc1cn(CC(=O)NCC(=O)NC2CC2)c2ccccc12	-0.966%
Cc1cc(C(=O)NCCC2CCN(C)CC2)ccc1N(C)S(C)(=O)=O	5.82%
CCc1nc(COc2ccc(OCc3cnn(C)c3)cc2)no1	-14.9%
CCc1cccc(CC(=O)NC2CCN(C(=O)NC(C)(C)C)CC2)c1	-4.73%
